- experimentalSystem: PI3K delta (Homo sapiens)
- Construct: for the full-length p110-d subunit are generated and fused by overlapping PCR; p85(iSH2) fusion partner (see partner chain) (N); His tag (C); Tn5 (Trichoplusia ni) or TiniPro insect cells
- Sequence (O00329 with tags, fused parts or gaps limits assumed): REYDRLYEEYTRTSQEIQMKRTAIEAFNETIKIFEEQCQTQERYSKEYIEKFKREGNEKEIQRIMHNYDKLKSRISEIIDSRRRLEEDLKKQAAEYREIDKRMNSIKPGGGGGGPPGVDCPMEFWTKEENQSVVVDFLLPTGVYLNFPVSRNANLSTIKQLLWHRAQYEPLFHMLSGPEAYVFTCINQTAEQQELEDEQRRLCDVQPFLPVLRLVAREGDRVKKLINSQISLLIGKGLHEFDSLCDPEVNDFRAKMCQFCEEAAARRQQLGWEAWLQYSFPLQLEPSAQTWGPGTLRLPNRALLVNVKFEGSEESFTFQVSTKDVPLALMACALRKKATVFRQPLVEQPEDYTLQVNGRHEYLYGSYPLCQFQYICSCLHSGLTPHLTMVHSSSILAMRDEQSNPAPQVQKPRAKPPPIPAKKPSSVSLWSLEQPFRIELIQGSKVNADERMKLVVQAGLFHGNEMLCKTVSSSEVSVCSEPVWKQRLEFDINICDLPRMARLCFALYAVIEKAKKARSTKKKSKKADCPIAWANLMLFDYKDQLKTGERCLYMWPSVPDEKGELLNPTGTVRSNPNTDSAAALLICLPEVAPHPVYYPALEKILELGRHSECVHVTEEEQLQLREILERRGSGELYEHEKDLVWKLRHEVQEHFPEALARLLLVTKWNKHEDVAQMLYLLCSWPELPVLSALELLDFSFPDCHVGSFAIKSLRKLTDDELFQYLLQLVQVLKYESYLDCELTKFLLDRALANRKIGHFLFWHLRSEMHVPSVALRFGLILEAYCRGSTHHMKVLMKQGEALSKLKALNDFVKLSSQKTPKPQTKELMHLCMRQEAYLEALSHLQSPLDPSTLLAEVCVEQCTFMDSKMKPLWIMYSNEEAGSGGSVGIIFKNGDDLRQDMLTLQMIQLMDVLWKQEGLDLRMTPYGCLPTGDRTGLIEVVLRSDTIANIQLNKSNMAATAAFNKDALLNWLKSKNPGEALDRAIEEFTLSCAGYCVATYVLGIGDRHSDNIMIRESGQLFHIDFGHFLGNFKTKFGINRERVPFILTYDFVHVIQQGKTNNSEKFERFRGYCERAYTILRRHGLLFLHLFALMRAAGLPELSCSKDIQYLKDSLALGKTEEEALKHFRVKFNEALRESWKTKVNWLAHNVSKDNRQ
- measurementNotes: PI3K delta kinase assay (Kinase-Glo luminescence)
measuredQuantity: pIC50
Hey, just a heads up that pIC50 is the negative log base 10 of the concentration in molar.

Examples with their reported pIC50 follow.
[
  {
    "smilesNotation": "CCn1cc(-n2c(=O)n(C)c3cnc4ccc(-c5ccc(COC)nc5)cc4c32)c(C)n1",
    "pIC50": 6.85
  },
  {
    "smilesNotation": "CNc1ncc(-c2ccc3ncc4c(c3c2)n(-c2c(C)nn(C)c2C)c(=O)n4C)cn1",
    "pIC50": 7.60
  },
  {
    "smilesNotation": "Cc1nn(C)cc1-n1c(=O)n(C)c2cnc3ccc(-c4cnc(N)nc4)cc3c21",
    "pIC50": 7.41
  }
]

# evaluate next
Task: Record lookup: for PI3K delta (Homo sapiens), what pIC50 belongs to "Cc1nn(C)cc1-n1c(=O)n(C)c2cnc3ccc(-c4cncc(NC5CCC5)c4)cc3c21" ?
Result: 7.48

###

- experimentalSystem: mTOR (Homo sapiens, UniProt P42345)
- Sequence (P42345 1360-2549 limits assumed): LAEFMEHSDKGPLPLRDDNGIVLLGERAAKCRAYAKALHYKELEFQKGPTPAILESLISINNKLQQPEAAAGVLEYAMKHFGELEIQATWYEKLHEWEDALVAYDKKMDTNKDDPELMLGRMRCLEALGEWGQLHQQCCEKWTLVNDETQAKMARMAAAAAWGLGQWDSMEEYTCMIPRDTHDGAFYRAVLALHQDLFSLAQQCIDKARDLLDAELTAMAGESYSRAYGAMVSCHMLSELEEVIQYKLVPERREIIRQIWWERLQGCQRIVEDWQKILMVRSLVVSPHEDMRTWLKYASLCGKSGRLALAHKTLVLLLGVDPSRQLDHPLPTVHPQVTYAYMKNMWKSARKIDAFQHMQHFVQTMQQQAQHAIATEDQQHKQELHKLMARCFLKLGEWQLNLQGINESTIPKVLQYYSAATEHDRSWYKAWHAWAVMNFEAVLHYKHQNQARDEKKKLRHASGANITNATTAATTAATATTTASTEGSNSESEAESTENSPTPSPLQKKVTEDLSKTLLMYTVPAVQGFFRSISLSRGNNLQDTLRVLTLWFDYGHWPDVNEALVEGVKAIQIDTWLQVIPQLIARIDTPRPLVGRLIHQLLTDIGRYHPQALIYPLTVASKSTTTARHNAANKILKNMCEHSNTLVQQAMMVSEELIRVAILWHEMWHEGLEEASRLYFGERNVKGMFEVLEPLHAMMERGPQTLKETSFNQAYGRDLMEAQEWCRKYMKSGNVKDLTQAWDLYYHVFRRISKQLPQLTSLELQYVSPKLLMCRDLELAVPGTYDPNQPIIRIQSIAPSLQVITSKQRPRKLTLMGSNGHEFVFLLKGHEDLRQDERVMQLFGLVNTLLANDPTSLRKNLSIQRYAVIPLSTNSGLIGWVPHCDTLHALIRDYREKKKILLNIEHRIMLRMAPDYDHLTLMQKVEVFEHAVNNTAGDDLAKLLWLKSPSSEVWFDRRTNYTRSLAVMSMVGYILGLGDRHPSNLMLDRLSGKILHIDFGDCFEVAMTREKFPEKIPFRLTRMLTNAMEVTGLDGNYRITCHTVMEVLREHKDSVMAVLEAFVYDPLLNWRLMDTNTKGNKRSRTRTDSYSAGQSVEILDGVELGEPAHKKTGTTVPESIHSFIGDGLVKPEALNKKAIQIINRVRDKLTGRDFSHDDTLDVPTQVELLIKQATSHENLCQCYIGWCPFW
measuredQuantity: pIC50
Hey, just a heads up that pIC50 is the negative log base 10 of the concentration in molar.

Examples with their reported pIC50 follow.
[
  {
    "smilesNotation": "Cc1nn(C)cc1-n1c(=O)n(C)c2cnc3ccc(-c4cc(O)cc(C(F)(F)F)c4)cc3c21",
    "pIC50": 6.88
  },
  {
    "smilesNotation": "CCNc1cc(-c2ccc3ncc4c(c3c2)n(-c2c(C)nn(CCO)c2C)c(=O)n4C)cnc1C",
    "pIC50": 7.40
  }
]

Task: I am curious: what pIC50 value has been reported for "CCOc1ccc(-c2ccc3ncc4c(c3c2)n(-c2cn(CC)nc2C)c(=O)n4C)cc1OCC" ?
Result: 7.31

Task: Would you mind doing "Cc1nn(C)cc1-n1c(=O)n(C)c2cnc3ccc(-c4cccc(O)c4)cc3c21" as well?
Result: 7.55

Task: Would you mind doing "COc1ccc(-c2ccc3ncc4c(c3c2)n(-c2cn(C)nc2C)c(=O)n4C)cn1" as well?
Result: 8.05

Task: Would you mind doing "CCNc1cc(-c2ccc3ncc4c(c3c2)n(-c2c(C)nn(CCOC)c2C)c(=O)n4C)cnc1OC" as well?
Result: 6.89

Task: Would you mind doing "CNc1ncc(-c2ccc3ncc4c(c3c2)n(-c2c(C)nn(C)c2C)c(=O)n4C)cc1C(F)(F)F" as well?
Result: 6.56

Task: Would you mind doing "COCc1cncc(-c2ccc3ncc4c(c3c2)n(-c2cn(C)nc2Cl)c(=O)n4C)c1" as well?
Result: 7.03

###

- experimentalSystem: PI3K beta (Homo sapiens)
- Construct: for the full-length p110-b subunit are generated and fused by overlapping PCR; p85(iSH2) fusion partner (see partner chain) (N); His tag (C); Tn5 (Trichoplusia ni) or TiniPro insect cells
- Sequence (P42338 with tags, fused parts or gaps limits assumed): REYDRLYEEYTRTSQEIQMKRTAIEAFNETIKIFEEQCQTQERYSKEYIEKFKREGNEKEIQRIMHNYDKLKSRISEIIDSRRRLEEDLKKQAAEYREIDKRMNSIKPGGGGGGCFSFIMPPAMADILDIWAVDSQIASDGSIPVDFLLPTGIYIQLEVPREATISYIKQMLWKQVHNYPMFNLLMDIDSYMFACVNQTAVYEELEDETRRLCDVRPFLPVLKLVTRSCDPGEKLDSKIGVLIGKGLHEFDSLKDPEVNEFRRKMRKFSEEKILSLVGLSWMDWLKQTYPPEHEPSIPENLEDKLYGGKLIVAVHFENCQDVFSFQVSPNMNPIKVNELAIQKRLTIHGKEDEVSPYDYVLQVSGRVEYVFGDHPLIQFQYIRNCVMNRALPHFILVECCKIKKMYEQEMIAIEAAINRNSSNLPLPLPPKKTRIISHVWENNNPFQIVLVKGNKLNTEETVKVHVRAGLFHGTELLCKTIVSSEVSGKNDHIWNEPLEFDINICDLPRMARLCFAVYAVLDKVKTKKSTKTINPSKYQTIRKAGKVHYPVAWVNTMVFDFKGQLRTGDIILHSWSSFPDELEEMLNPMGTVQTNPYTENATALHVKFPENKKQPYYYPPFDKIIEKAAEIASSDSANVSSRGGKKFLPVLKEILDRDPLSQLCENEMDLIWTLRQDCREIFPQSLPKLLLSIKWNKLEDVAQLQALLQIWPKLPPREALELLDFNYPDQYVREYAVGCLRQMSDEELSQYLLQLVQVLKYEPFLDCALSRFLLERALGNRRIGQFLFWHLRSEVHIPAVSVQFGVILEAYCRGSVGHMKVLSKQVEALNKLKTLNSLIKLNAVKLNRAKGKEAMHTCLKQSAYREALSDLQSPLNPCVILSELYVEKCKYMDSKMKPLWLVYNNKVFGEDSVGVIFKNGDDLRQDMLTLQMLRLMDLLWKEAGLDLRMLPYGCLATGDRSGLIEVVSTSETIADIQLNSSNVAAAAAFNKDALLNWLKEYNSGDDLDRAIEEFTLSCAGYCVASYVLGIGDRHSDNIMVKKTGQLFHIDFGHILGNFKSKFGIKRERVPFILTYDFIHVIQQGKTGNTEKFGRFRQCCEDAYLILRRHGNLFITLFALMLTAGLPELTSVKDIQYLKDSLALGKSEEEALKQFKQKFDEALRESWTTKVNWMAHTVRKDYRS
- measurementNotes: PI3K beta kinase assay (Kinase-Glo luminescence)
measuredQuantity: IC50 (nM)
Give just the numeric value; nM need not be written.

Examples with their reported IC50 follow.
[
  {
    "smilesNotation": "Cc1nn(C)cc1-n1c(=O)n(C)c2cnc3ccc(-c4cnc5ccccc5c4)cc3c21",
    "units": "nM",
    "IC50": 40
  },
  {
    "smilesNotation": "Cc1nn(C)cc1-n1c(=O)n(C)c2cnc3ccc(-c4cnc(Cl)c(NS(C)(=O)=O)c4)cc3c21",
    "units": "nM",
    "IC50": 7
  },
  {
    "smilesNotation": "CCOc1ccc(-c2ccc3ncc4c(c3c2)n(-c2cn(C)nc2C)c(=O)n4C)cn1",
    "units": "nM",
    "IC50": 192
  }
]

# evaluate next
Task: I am curious: what IC50 value has been reported for "Cc1nn(C)cc1-n1c(=O)n(C)c2cnc3ccc(-c4cncc(CNS(C)(=O)=O)c4)cc3c21" ?
Result: 101

###

- Test system: PKB Ser473 phosphorylation in Rat1-myr-HA-p110 alpha cells
- measurementNotes: Reverse protein array assay, PKB Ser473 phosphorylation in Rat1-myr-p110 alpha cells
- Assay type: cell-based
- reportedConditions: 0.5 h, pAkt Ser473, 30 minutes compound incubation, read-out: p-PKB IC50
measuredQuantity: log10 IC50 (log10 of the value in µM)
All values: base-10 log of IC50 in µM.

Examples with their reported log10 IC50 follow.
[
  {
    "smilesNotation": "COc1cc(-c2ccc3ncc4c(c3c2)n(-c2cn(C)nc2C)c(=O)n4C)cnc1CO",
    "log10 IC50": -2.10
  },
  {
    "smilesNotation": "CNC(=O)c1ccc(-c2ccc3ncc4c(c3c2)n(-c2c(C)nn(C)c2C)c(=O)n4C)cn1",
    "log10 IC50": -0.45
  },
  {
    "smilesNotation": "CCn1cc(-n2c(=O)n(C)c3cnc4ccc(-c5cncc(N)c5)cc4c32)c(C)n1",
    "log10 IC50": -1.59
  }
]

Task: Record lookup: for PKB Ser473 phosphorylation in Rat1-myr-HA-p110 alpha cells, what log10 IC50 belongs to "Cc1nn(C)cc1-n1c(=O)n(C)c2cnc3ccc(-c4cnc5c(c4)OCCN5C)cc3c21" ?
Result: -1.74

Task: Would you mind doing "Cc1ncc(-c2ccc3ncc4c(c3c2)n(-c2cn(C)nc2C)c(=O)n4C)cc1N(C)S(C)(=O)=O" as well?
Result: -0.69

Task: Would you mind doing "CCOc1ccc(-c2ccc3ncc4c(c3c2)n(-c2cc(C(F)(F)F)nn2C)c(=O)n4C)cn1" as well?
Result: -0.92

Task: Would you mind doing "COc1cc(-c2ccc3ncc4c(c3c2)n(-c2cn(C)nc2Cl)c(=O)n4C)cnc1CO" as well?
Result: -2.05

###

- experimentalSystem: PI3K alpha (Homo sapiens)
- Construct: p85(iSH2) fusion partner (see partner chain) (N); His tag (C); Tn5 (Trichoplusia ni) or TiniPro insect cells
- measurementNotes: PI3K alpha kinase assay (Kinase-Glo luminescence)
measuredQuantity: log10(IC50) (log10 of the value in nM)
All values: base-10 log of IC50 in nM.

Examples with their reported log10(IC50) follow.
[
  {
    "compound": "Cc1nn(C)cc1-n1c(=O)n(C)c2cnc3ccc(-c4cccnc4)cc3c21 [Example 10.2]",
    "experimentalSystem": "PI3K alpha (Homo sapiens)",
    "log10(IC50)": 1.20
  },
  {
    "compound": "Cc1nn(C)cc1-n1c(=O)n(C)c2cnc3ccc(-c4cnc5c(ccn5C)c4)cc3c21 [Example 116]",
    "experimentalSystem": "PI3K alpha (Homo sapiens)",
    "log10(IC50)": 1.08
  },
  {
    "compound": "Cc1ncc(-c2ccc3ncc4c(c3c2)n(-c2cn(C)nc2C)c(=O)n4C)cc1N [Example 88.2]",
    "experimentalSystem": "PI3K alpha (Homo sapiens)",
    "log10(IC50)": 1.23
  },
  {
    "compound": "CCNc1cc(-c2ccc3ncc4c(c3c2)n(-c2c(C)nn(C)c2C)c(=O)n4C)cnc1Cl [Example 153.1]",
    "experimentalSystem": "PI3K alpha (Homo sapiens)",
    "log10(IC50)": 1.00
  },
  {
    "compound": "CCOc1ccc(-c2ccc3ncc4c(c3c2)n(-c2cn(C(C)C)nc2C)c(=O)n4C)cn1 [Example 3.7]",
    "experimentalSystem": "PI3K alpha (Homo sapiens)",
    "log10(IC50)": 1.79
  }
]

Task: I am curious: what log10(IC50) value has been reported for COc1ncc(-c2ccc3ncc4c(c3c2)n(-c2cn(C)nc2C)c(=O)n4C)cc1[N+](=O)[O-] [Example 66] ?
Result: 1.56

Task: Would you mind doing COc1ncc(-c2ccc3ncc4c(c3c2)n(-c2cn(C)nc2C)c(=O)n4C)cc1C(N)=O [Example 125.2] as well?
Result: 1.70

Task: Would you mind doing CO[C@@H]1CCN(c2ccc(-c3ccc4ncc5c(c4c3)n(-c3cn(C)nc3C)c(=O)n5C)cn2)C1 [Example 213.1] as well?
Result: 2.66

###

Consider compounds characterized by their pIC50 with PI3K gamma (Homo sapiens, UniProt P48736).
Sequence (P48736 144-1102 limits assumed): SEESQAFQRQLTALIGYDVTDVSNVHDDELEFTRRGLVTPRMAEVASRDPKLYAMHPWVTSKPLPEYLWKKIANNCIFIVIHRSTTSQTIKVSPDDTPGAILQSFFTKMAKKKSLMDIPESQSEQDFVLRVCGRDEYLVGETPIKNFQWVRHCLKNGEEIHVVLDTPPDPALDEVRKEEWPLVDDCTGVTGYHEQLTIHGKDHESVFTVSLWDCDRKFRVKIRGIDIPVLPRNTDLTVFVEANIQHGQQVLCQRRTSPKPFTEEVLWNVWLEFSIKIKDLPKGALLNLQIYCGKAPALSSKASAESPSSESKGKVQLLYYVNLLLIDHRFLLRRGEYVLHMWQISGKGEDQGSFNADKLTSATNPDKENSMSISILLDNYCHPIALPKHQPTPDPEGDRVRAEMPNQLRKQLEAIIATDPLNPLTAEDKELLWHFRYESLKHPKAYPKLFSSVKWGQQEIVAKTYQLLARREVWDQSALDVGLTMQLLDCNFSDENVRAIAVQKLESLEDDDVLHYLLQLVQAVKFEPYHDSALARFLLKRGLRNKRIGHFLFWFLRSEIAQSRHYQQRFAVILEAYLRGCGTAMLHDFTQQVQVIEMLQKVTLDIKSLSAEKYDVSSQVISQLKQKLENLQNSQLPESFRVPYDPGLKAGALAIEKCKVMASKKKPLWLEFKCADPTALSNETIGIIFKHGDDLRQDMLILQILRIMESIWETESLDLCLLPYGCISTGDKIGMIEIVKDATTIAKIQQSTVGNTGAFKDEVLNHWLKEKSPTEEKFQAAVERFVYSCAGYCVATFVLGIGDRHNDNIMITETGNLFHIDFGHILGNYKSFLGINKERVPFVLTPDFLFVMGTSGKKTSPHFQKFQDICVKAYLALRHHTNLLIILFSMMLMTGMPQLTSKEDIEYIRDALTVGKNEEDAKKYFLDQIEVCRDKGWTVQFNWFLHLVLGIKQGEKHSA
Hey, just a heads up that pIC50 is the negative log base 10 of the concentration in molar.

Examples with their reported pIC50 follow.
[
  {
    "smilesNotation": "Cc1nn(C)cc1-n1c(=O)n(C)c2cnc3ccc(-c4cncc(N(C)S(C)(=O)=O)c4)cc3c21",
    "resultNumber": 6.74
  },
  {
    "smilesNotation": "CCOc1cncc(-c2ccc3ncc4c(c3c2)n(-c2c(C)nn(C)c2C)c(=O)n4C)c1",
    "resultNumber": 6.59
  }
]

# evaluate next
Task: I am curious: what pIC50 value has been reported for "Cc1nn(C)c(C)c1-n1c(=O)n(C)c2cnc3ccc(-c4cccc(O)c4)cc3c21" ?
Result: 6.80
